# Tested on: Aspergillus niger
# EXPERIMENT SUMMARY: Antifungal activity against Aspergillus niger measured on day 4 by broth microdilution method
# Assay type: functional
# ASSAY CONTEXT: 96 h
Where a SMILES comes first, the peptide text is derived from it. The star is where a group is joined. Benzoyl(4-B(OH)2) = O=C(c1ccc(B(O)O)cc1)*; Bz = O=C(c1ccccc1)*
Reported MIC values for a set of compounds
Give your result in µg/mL as a bare value.

Would you please look over these solved cases?
COMPOUND: CC(C)C[C@H](NC(=O)[C@H](CCCCN)NC(=O)[C@H](CCCCN)NC(=O)[C@H](CC(C)C)NC(=O)[C@@H](N)CCCCN)C(=O)N[C@@H](CCCCN)C(=O)N[C@@H](CCCCN)C(=O)N[C@@H](CCCCN)C(=O)N[C@@H](CCCCNC(=O)c1ccc(B(O)O)cc1)C(=O)N[C@@H](Cc1ccc(O)cc1)C(=O)O (H-KLKKLKKKK(Benzoyl(4-B(OH)2))Y-OH)
OBSERVED VALUE: 125
//
COMPOUND: CC(C)C[C@H](NC(=O)[C@H](CC(C)C)NC(=O)[C@H](CCCCN)NC(=O)[C@H](CCCCNC(=O)c1ccc(B(O)O)cc1)NC(=O)[C@H](CCCCN)NC(=O)[C@H](CCCCN)NC(=O)[C@H](CCCCNC(=O)c1ccc(B(O)O)cc1)NC(=O)[C@@H](N)CCCCN)C(=O)N[C@@H](CCCCN)C(=O)N[C@@H](Cc1ccc(O)cc1)C(=O)O (H-KK(Benzoyl(4-B(OH)2))KKK(Benzoyl(4-B(OH)2))KLLKY-OH)
OBSERVED VALUE: 125

API: the following record is the query input.
QUERY: # input compound: CC(C)C[C@H](NC(=O)[C@H](CCCCN)NC(=O)[C@H](CCCCN)NC(=O)[C@H](CCCCN)NC(=O)[C@H](CCCCN)NC(=O)[C@H](CCCCN)NC(=O)[C@H](CCCCN)NC(=O)[C@@H](N)CCCCN)C(=O)N[C@@H](CCCCNC(=O)c1ccccc1)C(=O)N[C@@H](Cc1ccc(O)cc1)C(=O)O (H-KKKKKKKLK(Bz)Y-OH) ; wanted: its MIC
RESULT: 125
